Numbers sourced from paper PMC9995496.

Exercise: state measured Inh (PKA) for each of the compounds provided.
# System: PRKACA-PRKAR2A interaction (SmBiT-PRKACA / LgBiT-PRKAR2A), protein kinase A
# Parameters: NanoLuc complementation counter-screen in cell extract, PRKACA with PRKAR2A, loss of luminescence, detects NanoLuc interference
# protocol.conditions: counter-screen for NanoLuc interference; 0.5 h, 20 µM; inhibitor
Structures can show the parent of a compound that is named as a salt.
Field format: number, assumed %, no unit text.

stdin: For NC(=O)c1cnc(N[C@@H]2CCCC[C@@H]2N)nc1Nc1cccc(-n2nccn2)c1 [UM0141609:01, PRT062607 Hydrochloride] , what is its reported Inh (PKA)?
stdout: 22.19

stdin: Cool, now CCN[C@@H]1C[C@H](N)[C@@H](O[C@H]2OC(CN)=CC[C@H]2N)[C@H](O)[C@H]1O[C@H]1OC[C@](C)(O)[C@H](NC)[C@H]1O [UM0142372:01, Netilmicin Sulfate]
stdout: -0.6216

stdin: Cool, now COc1cc(F)c(C(C)C)cc1-c1ccc(C(F)(F)F)cc1CN1C(=O)O[C@H](c2cc(C(F)(F)F)cc(C(F)(F)F)c2)[C@@H]1C
stdout: -2.323

stdin: Cool, now O=C1NCCSc2c1sc1ccc(O)cc21
stdout: 9.964

stdin: Cool, now CCc1ccc(CCOc2ccc(CC3SC(=O)NC3=O)cc2)nc1 (stereo not shown) [UM0141783:01, Pioglitazone HCl]
stdout: 13.53

stdin: Cool, now O=C(Nc1nc2ccccc2n1CCN1CCOCC1)c1cccc([N+](=O)[O-])c1
stdout: 12.44

stdin: Cool, now CCCNC(=O)Nc1ccc(Oc2ncnc3cc(OC)c(OC)cc23)cc1Cl
stdout: 0.03165

stdin: Cool, now Fc1cc(F)c2c(c1)[C@H]1C=CC[C@H]1C(c1cccnc1)N2 (mixture of isomers) [UM0142231:01, Golgicide A]
stdout: 20.05

stdin: Cool, now Cn1cc(-c2ccc3c(c2)CCN3C(=O)Cc2cccc(C(F)(F)F)c2)c2c(N)ncnc21
stdout: 15.1

stdin: Cool, now NC(=O)[C@@H](CCC(F)(F)F)N(Cc1ccc(-c2ncon2)cc1F)S(=O)(=O)c1ccc(Cl)cc1
stdout: 25.28

stdin: Cool, now OCCn1cc(-c2ccc3c(c2)CC/C3=N\O)c(-c2ccncc2)n1
stdout: 3.817

stdin: Cool, now CCc1c(C(=O)NNC(=O)C(O)c2cc(F)cc(F)c2)ccc(O)c1C (stereo not shown)
stdout: 19.67

stdin: Cool, now Nc1ccccc1NC(=O)c1ccc(CNC(=O)OCc2cccnc2)cc1
stdout: 3.043

stdin: Cool, now Cc1ccc(NC(=O)CCCCCC(=O)Nc2ccccc2N)cc1
stdout: 6.356

stdin: Cool, now Cc1ccc(CNc2ncnc3ccc(-c4ccc(CO)o4)cc23)o1
stdout: 10.94

stdin: Cool, now O=C(O)c1cc(O)c2c(c1)[C@H]([C@H]1c3cc(C(=O)O)cc(O)c3C(=O)c3c(O[C@@H]4O[C@H](CO)[C@@H](O)[C@H](O)[C@H]4O)cccc31)c1cccc(O[C@@H]3O[C@H](CO)[C@@H](O)[C@H](O)[C@H]3O)c1C2=O [UM0142852:01, Sennoside A]
stdout: 33.8

stdin: Cool, now CC1=CC(=O)c2c(O)cccc2C1=O
stdout: 19.95

stdin: Cool, now COc1ccc(CNC(=O)Nc2ncc([N+](=O)[O-])s2)cc1
stdout: 66.01

stdin: Cool, now Cc1cn([C@H]2C=C[C@@H](CO)O2)c(=O)[nH]c1=O
stdout: 0.5167

stdin: Cool, now CCc1c2c(nc3ccc(O)cc13)-c1cc3c(c(=O)n1C2)COC(=O)[C@]3(O)CC [UM0142861:01, 7-Ethyl-10-hydroxycamptothecin]
stdout: 8.347

stdin: Cool, now COc1ccc([C@]2(C#N)CC[C@@H](C(=O)O)CC2)cc1OC1CCCC1
stdout: 0.1397

stdin: Cool, now CNC(=O)c1ccc(-c2cnc3ncc(Cc4ccc5ncccc5c4)n3n2)cc1F
stdout: 6.016

stdin: Cool, now CCOC(=O)[C@H](CCc1ccccc1)N[C@@H](C)C(=O)N1C(=O)N(C)C[C@H]1C(=O)O [UM0142047:01, Imidapril HCl]
stdout: 2.302

stdin: Cool, now COCC(=O)NC/C=C/c1ccc2ncnc(Nc3ccc(Oc4ccc(C)nc4)c(C)c3)c2c1
stdout: 30.01

stdin: Cool, now Cc1cc(C)cc(C(=O)NOCCCCCC(=O)NO)c1
stdout: -1.396

stdin: Cool, now CNC(=O)c1c(C)oc2cc(Oc3ncnc4cc(OC)c(OC)cc34)ccc12
stdout: 4.605

stdin: Cool, now NCCC(O)(P(=O)(O)O)P(=O)(O)O [UM0141459:01, Pamidronate Disodium]
stdout: 0.7087

stdin: Cool, now COc1cc2c(cc1OC)CN(CCc1ccc(NC(=O)c3cccc4c(=O)c5cccc(OC)c5[nH]c34)cc1)CC2
stdout: 22.37
